system: SH-SY5Y cells; test: Nuclear count from microscopy images (cellular growth and toxicity); conditions: PKIS2 primary screening; further: reference of the scale not given here
The threshold is inclusive: Nuclear Count of exactly 100 counts as 1 (yes); values below receive 0 (no).

Here's what some known entries look like.
Enquiry: Has `CN(c1ccc2c(c1)nc(NCc1ccccc1)n2C)c1ccnc(Nc2ccc(CS(C)(=O)=O)cc2)n1` a recorded Nuclear Count greater than or equal to 100?
Return: 1 (yes)

Enquiry: Has Cc1nnc(-c2ccc(C)c(-c3ccc(C(=O)O)cc3)c2)o1 [UNC10225501A] a recorded Nuclear Count greater than or equal to 100?
Return: 1 (yes)

Enquiry: Has Cl.Fc1ccccc1COc1ccc(Nc2ncnc3ccc(-c4nnc(C(F)(F)F)o4)cc23)cc1Cl [UNC10225422A] a recorded Nuclear Count greater than or equal to 100?
Return: 1 (yes)

Enquiry: Has NCCNS(=O)(=O)c1ccc(-c2ccnc3[nH]ccc23)cc1 [UNC10225023A] a recorded Nuclear Count greater than or equal to 100?
Return: 1 (yes)

Next:
Enquiry: Has Nc1ncnc2c1ncn2-c1ccc(Cl)cc1 [UNC10225203A] a recorded Nuclear Count greater than or equal to 100?
Return: 0 (no)

Enquiry: Has COc1cccc(NC(=O)NC2CCN(c3ccnc(Nc4cc(OC)c(OC)c(OC)c4)n3)C2)c1 (stereo not shown) a recorded Nuclear Count greater than or equal to 100?
Return: 0 (no)

Enquiry: Has CCc1nc(-c2cccc(N(C)S(=O)(=O)c3ccccc3)c2)c(-c2ccnc(Nc3ccc(N4CCN(C(C)=O)CC4)nc3)n2)s1 [UNC10225205A] a recorded Nuclear Count greater than or equal to 100?
Return: 0 (no)

Enquiry: Has `Cc1cccc(-c2nc(Nc3ccc4ncsc4c3)c3ccccc3n2)n1` a recorded Nuclear Count greater than or equal to 100?
Return: 0 (no)

Enquiry: Has Cn1cncc1-c1ccc2ncnc(Nc3ccc(OCc4ccccc4)cc3)c2c1 [UNC10225497A] a recorded Nuclear Count greater than or equal to 100?
Return: 1 (yes)

Enquiry: Has Cc1ccccc1-c1cc(-c2c[nH]nc2-c2ccccn2)ccn1 [UNC10225243A] a recorded Nuclear Count greater than or equal to 100?
Return: 0 (no)

Enquiry: Has Cc1nnc(-c2ccc(C)c(-c3ccc(C(=O)Nc4ccc(NS(C)(=O)=O)cc4)cc3)c2)o1 [UNC10225285A] a recorded Nuclear Count greater than or equal to 100?
Return: 0 (no)

Enquiry: Has FC(F)(F)c1ccc(-c2cc(-c3c[nH]nc3-c3ccccn3)ccn2)cc1 [UNC10225241A] a recorded Nuclear Count greater than or equal to 100?
Return: 1 (yes)

Enquiry: Has Nc1nc(-c2ccc3c(N)n[nH]c3c2)cc(N2CCCC(NC(=O)c3ccccc3)C2)n1 (stereo not shown) a recorded Nuclear Count greater than or equal to 100?
Return: 1 (yes)

Enquiry: Has NCC(NC(=O)c1cc(-c2cn[nH]c2)c(-c2ccnc3[nH]ccc23)s1)c1ccccc1.O=C(O)C(F)(F)F.O=C(O)C(F)(F)F (stereo not shown) [UNC10225196A] a recorded Nuclear Count greater than or equal to 100?
Return: 0 (no)

Enquiry: Has NS(=O)(=O)CCc1cccc(Nc2nccc(-c3c(-c4cccc(NC(=O)c5c(F)cccc5F)c4)nn4ccccc34)n2)c1 [UNC10224988A] a recorded Nuclear Count greater than or equal to 100?
Return: 1 (yes)

Enquiry: Has `C[C@@H]1CC[C@H](C(=O)NC2CCCCC2)CN1c1cc(-c2ccc3c(N)n[nH]c3c2)nc(N)n1` a recorded Nuclear Count greater than or equal to 100?
Return: 1 (yes)

Enquiry: Has Cc1ccc(NC(=O)c2ccc(Cl)c(Cl)c2)cc1-c1ccc(C(=O)Nc2ccncc2)cc1 [UNC10225151A] a recorded Nuclear Count greater than or equal to 100?
Return: 1 (yes)

Cited source: paper PMC9851200
